# System: Mycobacterium kansasii
# Experiment: Antimycobacterial activity against Mycobacterium kansasii My 235/80 after 7 days
# Assay type: functional
# Condition context: My 235/80, 168 h
This listing pairs compounds with measured MIC.

Qu. For the compound "CCOP(=O)(OCC)Oc1cc(Cl)ccc1C(=O)Nc1cccc(C(F)(F)F)c1" , give its reported MIC.
Ans. 2 µM

Qu. For the compound "CCOP(=O)(OCC)Oc1ccc(Br)cc1C(=O)Nc1cccc(C(F)(F)F)c1" , give its reported MIC.
Ans. 4 µM

Qu. For the compound "CCOP(=O)(OCC)Oc1ccc(Cl)cc1C(=O)Nc1ccc(Cl)cc1" , give its reported MIC.
Ans. 8 µM

Qu. For the compound "CCOP(=O)(OCC)Oc1cc(Cl)ccc1C(=O)Nc1ccc(C(F)(F)F)cc1" , give its reported MIC.
Ans. 0.5 µM

***
Qu. For the compound "CCOP(=O)(OCC)Oc1ccc(Cl)cc1C(=O)Nc1cccc(Br)c1" , give its reported MIC.
Ans. 4 µM

Qu. For the compound "CCOP(=O)(OCC)Oc1ccc(Br)cc1C(=O)Nc1ccc(Cl)cc1" , give its reported MIC.
Ans. 4 µM

Qu. For the compound "CCOP(=O)(OCC)Oc1ccc(Cl)cc1C(=O)Nc1ccc(Cl)c(Cl)c1" , give its reported MIC.
Ans. 4 µM
